Target: Melanocortin receptor 3 (Homo sapiens, UniProt P41968)
Sequence (P41968 whole entry): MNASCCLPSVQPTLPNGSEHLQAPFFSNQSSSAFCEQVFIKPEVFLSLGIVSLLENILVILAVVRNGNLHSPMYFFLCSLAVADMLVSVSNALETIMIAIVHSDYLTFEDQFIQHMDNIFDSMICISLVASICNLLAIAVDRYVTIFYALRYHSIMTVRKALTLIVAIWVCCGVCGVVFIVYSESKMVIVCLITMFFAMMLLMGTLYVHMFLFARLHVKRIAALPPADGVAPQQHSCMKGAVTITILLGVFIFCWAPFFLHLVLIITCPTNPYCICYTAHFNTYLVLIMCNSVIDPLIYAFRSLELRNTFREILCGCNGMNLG
Test: Displacement of [125I]NDPalphaMSH from human cloned MC3R expressed in CHO cells
Assay type: cell-based
Starred links: 1 amine or outer side, 2 acyl side, 3 side chain; linkers in the order of their positions; H or OH if unused. Positions of bridges follow the written chain, without caps; N, C: chain ends. Non-standard residues stand in square brackets, D forms with d. Residues, ends and D or L forms follow the SMILES beside them. ξ: configuration not given here. X2 = O=C([C@@H](Cc1ccc(Cc2ccccc2)cc1)N[*:1])[*:2]; Oic(3aξ,7aξ) = O=C(O)[C@@H]1CC2CCCCC2N1; Pip = O=C(O)[C@@H]1CCCCN1; Nle = CCCC[C@H](N)C(=O)O
property: IC50

Use the examples below as a reference point.
Recorded IC50 (molecule CCCC[C@H](NC(C)=O)C(=O)N[C@H]1CC(=O)NCCCC[C@@H](C(N)=O)NC(=O)[C@H](Cc2c[nH]c3ccccc23)NC(=O)[C@@H]2CCCCN2C(=O)[C@@H](Cc2ccc(Cc3ccccc3)cc2)NC(=O)[C@@H]2CC3CCCCC3N2C1=O (stereo partly specified) (Ac-[Nle]D[Oic(3aξ,7aξ)][X2][Pip]WK-NH2; lactam 2-7) ): > 1 µM

Recorded IC50 (molecule `CCCC[C@H](NC(C)=O)C(=O)N[C@H]1CC(=O)NCCCC[C@@H](C(N)=O)NC(=O)[C@H](Cc2c[nH]c3ccccc23)NC(=O)[C@@H]2CCCN2C(=O)[C@@H](Cc2ccc(-c3ccccc3)cc2)NC(=O)[C@@H]2CCCN2C1=O` ): 0.63 µM (antagonist)

Recorded IC50 (molecule `CCCC[C@H](NC(C)=O)C(=O)N[C@H]1CC(=O)NCCCC[C@@H](C(N)=O)NC(=O)[C@H](Cc2c[nH]c3ccccc23)NC(=O)[C@@H]2CCCN2C(=O)[C@@H](Cc2ccc(Cl)cc2)NC(=O)[C@H](Cc2c[nH]cn2)NC1=O` ): > 20 µM

Recorded IC50 (molecule CCCC[C@H](NC(C)=O)C(=O)N[C@H]1CC(=O)NCCCC[C@@H](C(N)=O)NC(=O)[C@H](Cc2c[nH]c3ccccc23)NC(=O)[C@@H]2CCCN2C(=O)[C@@H](Cc2ccc(-c3ccccc3)cc2)NC(=O)[C@@H]2CC3CCCCC3N2C1=O (stereo partly specified) ): 4.4 µM (antagonist)

Recorded IC50 (molecule `CCCC[C@H](NC(C)=O)C(=O)N[C@H]1CC(=O)NCCCC[C@@H](C(N)=O)NC(=O)[C@H](Cc2c[nH]c3ccccc23)NC(=O)[C@@H]2CCCN2C(=O)[C@@H](CCC(=O)O)NC(=O)[C@H](Cc2c[nH]cn2)NC1=O` ): > 10 µM

Recorded IC50 (molecule `CCCC[C@H](NC(C)=O)C(=O)N[C@H]1CC(=O)NCCCC[C@@H](C(N)=O)NC(=O)[C@H](Cc2c[nH]c3ccccc23)NC(=O)[C@@H]2CCCN2C(=O)[C@@H](Cc2cccs2)NC(=O)[C@H](Cc2cnc[nH]2)NC1=O` ): > 5 µM

Recorded IC50 (molecule `CCCC[C@H](NC(C)=O)C(=O)N[C@H]1CC(=O)NCCCC[C@@H](C(N)=O)NC(=O)[C@H](Cc2c[nH]c3ccccc23)NC(=O)[C@@H]2CCCN2C(=O)[C@@H](Cc2ccc([N+](=O)[O-])cc2)NC(=O)[C@H](Cc2cnc[nH]2)NC1=O` ): > 2 µM

Recorded IC50 (molecule `CCCC[C@H](NC(C)=O)C(=O)N[C@H]1CC(=O)NCCCC[C@@H](C(N)=O)NC(=O)[C@H](Cc2c[nH]c3ccccc23)NC(=O)[C@@H]2CCCCN2C(=O)[C@@H](Cc2ccc(-c3ccccc3)cc2)NC(=O)[C@@H]2Cc3ccccc3CN2C1=O` ): 3.9 µM (antagonist)

Need IC50 for each of these molecules.
1. CCCC[C@H](NC(C)=O)C(=O)N[C@H]1CC(=O)NCCCC[C@@H](C(N)=O)NC(=O)[C@H](Cc2c[nH]c3ccccc23)NC(=O)[C@@H]2CCCCN2C(=O)[C@@H](Cc2ccc(-c3ccccc3)cc2)NC(=O)[C@H](C(C)C)NC1=O
2. CCCC[C@H](NC(C)=O)C(=O)N[C@H]1CC(=O)NCCCC[C@@H](C(N)=O)NC(=O)[C@H](Cc2c[nH]c3ccccc23)NC(=O)[C@@H]2CCCCN2C(=O)[C@@H](Cc2ccc(-c3ccccc3)cc2)NC(=O)[C@@H]2CCCN2C1=O
3. CCCC[C@H](NC(C)=O)C(=O)N[C@H]1CC(=O)NCCCC[C@@H](C(N)=O)NC(=O)[C@H](Cc2c[nH]c3ccccc23)NC(=O)[C@@H]2CCCN2C(=O)[C@@H](Cc2ccc(-c3ccccc3)cc2)NC(=O)[C@H](Cc2c[nH]cn2)NC1=O
4. CCCC[C@H](NC(C)=O)C(=O)N[C@H]1CC(=O)NCCCC[C@@H](C(N)=O)NC(=O)[C@H](Cc2c[nH]c3ccccc23)NC(=O)[C@@H]2CCCCN2C(=O)[C@@H](Cc2ccc(-c3ccccc3)cc2)NC(=O)[C@H](Cc2c[nH]cn2)NC1=O
5. CCCC[C@H](NC(C)=O)C(=O)N[C@H]1CC(=O)NCCCC[C@@H](C(N)=O)NC(=O)[C@H](Cc2c[nH]c3ccccc23)NC(=O)[C@@H]2CCCN2C(=O)[C@@H](CCCCN)NC(=O)[C@H](Cc2cnc[nH]2)NC1=O
6. CCCC[C@H](NC(C)=O)C(=O)N[C@H]1CC(=O)NCCCC[C@@H](C(N)=O)NC(=O)[C@H](Cc2c[nH]c3ccccc23)NC(=O)[C@@H]2CCCN2C(=O)[C@@H](CCC(N)=O)NC(=O)[C@H](Cc2c[nH]cn2)NC1=O
7. CCCC[C@H](NC(C)=O)C(=O)N[C@H]1CC(=O)NCCCC[C@@H](C(N)=O)NC(=O)[C@H](Cc2c[nH]c3ccccc23)NC(=O)[C@@H]2CCCN2C(=O)[C@@H](Cc2ccc(OCC)cc2)NC(=O)[C@H](Cc2cnc[nH]2)NC1=O

**Result**
["> 10 µM", "0.27 µM (antagonist)", "1.5 µM", "1.4 µM (antagonist)", "> 10 µM", "> 10 µM", "> 10 µM"]

Recorded IC50 (molecule `CCCC[C@H](NC(C)=O)C(=O)N[C@H]1CC(=O)NCCCC[C@@H](C(N)=O)NC(=O)[C@H](Cc2c[nH]c3ccccc23)NC(=O)[C@@H]2CCCCN2C(=O)[C@@H](Cc2ccc(-c3ccccc3)cc2)NC(=O)[C@H](c2ccccc2)NC1=O` ): > 1 µM
